Each recorded value in this set is attributed to patent US20230025129A1.

Molecular target: T1, mouse matriptase-2 ECD protein his tag (mouse, UniProt Q9DBI0 80-811)
T1 sequence: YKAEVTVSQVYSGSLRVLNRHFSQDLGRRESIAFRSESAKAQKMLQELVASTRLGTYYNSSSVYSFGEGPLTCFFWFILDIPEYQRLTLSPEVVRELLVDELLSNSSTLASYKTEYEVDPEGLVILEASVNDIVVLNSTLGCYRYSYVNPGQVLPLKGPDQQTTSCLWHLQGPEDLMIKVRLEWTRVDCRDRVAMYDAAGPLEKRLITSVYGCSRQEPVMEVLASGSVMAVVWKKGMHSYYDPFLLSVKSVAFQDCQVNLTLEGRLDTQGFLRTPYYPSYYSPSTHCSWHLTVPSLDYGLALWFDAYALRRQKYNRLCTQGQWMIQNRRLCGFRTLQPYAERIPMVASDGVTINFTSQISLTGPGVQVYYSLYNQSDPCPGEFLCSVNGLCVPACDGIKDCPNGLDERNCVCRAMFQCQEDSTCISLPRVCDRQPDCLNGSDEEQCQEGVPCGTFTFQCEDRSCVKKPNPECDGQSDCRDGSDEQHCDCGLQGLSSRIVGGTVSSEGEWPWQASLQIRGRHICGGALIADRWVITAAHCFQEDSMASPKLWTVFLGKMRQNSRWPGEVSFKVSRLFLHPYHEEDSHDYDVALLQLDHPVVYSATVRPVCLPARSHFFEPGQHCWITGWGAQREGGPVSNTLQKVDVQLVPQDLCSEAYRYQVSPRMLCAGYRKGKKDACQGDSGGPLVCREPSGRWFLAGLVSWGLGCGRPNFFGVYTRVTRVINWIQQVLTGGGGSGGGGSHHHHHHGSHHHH
Assay: cell-based or functional assay
property.name: Inhibition enzymatic activity mouse MTP2 protein (IC50) (nM)
Kindly provide the numeric value in nM only, without the unit symbol.

# example entries with known answers
1. NORI-018 (antibody, human IgG4 S228P, lambda, V domains shown) VH: QLQLVQSGAEVKKPGASVKVSCKASGYTFTTFGIVWVRQAPGQGLEWMGWISGYNGNTKYAQNLQGRVTMTTDTSTSTAYMELRSLRSDDTAIYYCARDRAIAPRFDPWGQGTLVTVSS VL: SYELTQPPSVSVSPGQAASIPCSGDNLGDNFACWYQQKPGQSPVLVIYQDSKRPSGIPERFSGSNSGNTATLTINGTQAMDEADYYCQAWDSSTVVFGGGTKLTVLG = 0.589
2. NORI-033 (antibody, human IgG4 S228P, lambda, V domains shown) VH: QLQLQESGPGLVKPSETLSLTCTVSGDSISSHTYWWGWIRQPPGKGLEWIGSMFYSGSTYYNPSLKSRVVISVDTSRNQFSLKVRSVTAADTAVFYCARHNNWGMENYFDDWGQGTLVTVSS VL: SYALTQPPSVSVSPGQTARITCSADALPDQYGYWYQQKPGQAPVLVIYKDSERPSGIPERFSGSSSGTTVTLTISGVQAEDEADYYCQSADSSGSYVVFGGGTKLTVLG = 1.73

Now turn to the next binder.
-- ask # return recorded Inhibition enzymatic activity mouse MTP2 protein (IC50) for input NORI-019 (antibody, human IgG4 S228P, lambda, V domains shown) VH: QVQLVESGGGVVQPGRSLRLSCAASGFTFSNFDMHWVRQAPGKGLEWVAIISYDGSDKYYEDSVKGRFTISRDNSKNTLYLQMNSLRAEDTAIYYCAKDGYGSSLFDHWGQGTLVTVSS VL: QSVLTQPPSVSEAPRQRVTISCSGSSSNIGNNAVNWFQQLPGEVPKLLIYYDDLLPSGVSDRFSGSKSGTSASLAISGLQSEDEADYYCAVWDDSLNGVLFGGGTKLTVLG
-- reply 0.911
